Target Or System: catechol O-methyl transferase (COMT) (Homo sapiens, UniProt P21964)
Construct: recombinant human soluble COMT, hexahistidine-tagged
Sequence (P21964 51-271 limits assumed): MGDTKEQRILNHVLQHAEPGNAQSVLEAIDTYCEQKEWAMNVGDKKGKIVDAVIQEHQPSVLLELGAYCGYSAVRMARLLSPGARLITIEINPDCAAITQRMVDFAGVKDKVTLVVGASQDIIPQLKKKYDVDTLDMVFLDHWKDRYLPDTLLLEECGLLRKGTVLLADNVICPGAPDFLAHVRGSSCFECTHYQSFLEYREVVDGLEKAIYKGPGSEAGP
Test Method Notes: inhibition of recombinant COMT O-methylation of 4-OHE2 by HPLC-DAD (IC50 […]); also a substrate (Km […])

Smiles Record	Ki
C[C@H](Cc1ccc(O)c(O)c1)[C@H](C)Cc1ccc(O)c(O)c1	15.7 µM

Source: paper PMC8038350
